Documented IC50 across a set of compounds
- tested-system: prolyl 4-hydroxylase (collagen, EC 1.14.11.2)
- experiment-summary: Inhibition of prolyl 4-hydroxylase by chromatographic determination of [14C]-succinic acid on ion-exchange minicolumna
measure-name: IC50 (nM)

1. O=C(NS(=O)(=O)c1ccccc1)c1ccc(-c2ccc(C(=O)NS(=O)(=O)c3ccccc3)cn2)nc1 ... 5040
2. CCOc1ccc(NC(=O)c2ccc(-c3ccc(C(=O)O)cn3)nc2)cc1 ... 320
